# target of assay: T1, Human CD137 ECD (human)
# T1 construct: also called 4-1BB
# T1 sequence (chain, as listed by the source limits assumed): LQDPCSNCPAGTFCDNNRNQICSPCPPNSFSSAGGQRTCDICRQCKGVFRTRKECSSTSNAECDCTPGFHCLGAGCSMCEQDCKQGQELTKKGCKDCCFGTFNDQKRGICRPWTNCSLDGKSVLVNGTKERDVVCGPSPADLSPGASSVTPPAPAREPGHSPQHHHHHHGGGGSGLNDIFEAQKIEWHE
# assay name: single mutant vs template dBBDu183H
quantity kind: fold change of affinity (fold)
Respond with the bare value in fold.

Item: H183/L072 VH Y59N (antibody, name in Kabat numbering, V domains shown) VH: QVQLVESGGGLVQPGRSLRLSCAASGFTFSNAWMHWVRQAPGKGLEWVAQIKDKGNAYAAYNAPSVKGRFTISRDDSKNSIYLQMNSLKTEDTAVYYCHYVHYASASTVLPAFGVDAWGQGTTVTVSS VL: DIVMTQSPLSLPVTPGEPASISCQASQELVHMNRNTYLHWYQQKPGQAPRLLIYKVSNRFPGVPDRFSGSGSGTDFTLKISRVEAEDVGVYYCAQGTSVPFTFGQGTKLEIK | fold change of affinity: 0.8

The recorded fold change of affinity for H183/L072 VH A60D (antibody, name in Kabat numbering, V domains shown) VH: QVQLVESGGGLVQPGRSLRLSCAASGFTFSNAWMHWVRQAPGKGLEWVAQIKDKGNAYAAYYDPSVKGRFTISRDDSKNSIYLQMNSLKTEDTAVYYCHYVHYASASTVLPAFGVDAWGQGTTVTVSS VL: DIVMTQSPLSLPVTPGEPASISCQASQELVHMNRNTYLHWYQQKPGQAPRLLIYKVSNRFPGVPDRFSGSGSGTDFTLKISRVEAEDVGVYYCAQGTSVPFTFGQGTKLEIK is 0.6

In plain terms, H183/L072 VH T28A (antibody, name in Kabat numbering, V domains shown) VH: QVQLVESGGGLVQPGRSLRLSCAASGFAFSNAWMHWVRQAPGKGLEWVAQIKDKGNAYAAYYAPSVKGRFTISRDDSKNSIYLQMNSLKTEDTAVYYCHYVHYASASTVLPAFGVDAWGQGTTVTVSS VL: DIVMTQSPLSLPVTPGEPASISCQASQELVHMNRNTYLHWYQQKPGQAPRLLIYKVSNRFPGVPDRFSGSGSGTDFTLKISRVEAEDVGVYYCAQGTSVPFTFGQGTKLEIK has a documented fold change of affinity of 0.4

Looking up H183/L072 VH A57M (antibody, name in Kabat numbering, V domains shown) VH: QVQLVESGGGLVQPGRSLRLSCAASGFTFSNAWMHWVRQAPGKGLEWVAQIKDKGNAYAMYYAPSVKGRFTISRDDSKNSIYLQMNSLKTEDTAVYYCHYVHYASASTVLPAFGVDAWGQGTTVTVSS VL: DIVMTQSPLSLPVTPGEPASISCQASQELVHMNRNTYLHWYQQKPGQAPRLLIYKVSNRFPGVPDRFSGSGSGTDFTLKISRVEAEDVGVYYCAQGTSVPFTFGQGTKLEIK , I found its fold change of affinity recorded as 0.7

Sure, the documented fold change of affinity for H183/L072 VH Y97A (antibody, name in Kabat numbering, V domains shown) VH: QVQLVESGGGLVQPGRSLRLSCAASGFTFSNAWMHWVRQAPGKGLEWVAQIKDKGNAYAAYYAPSVKGRFTISRDDSKNSIYLQMNSLKTEDTAVYYCHYVHAASASTVLPAFGVDAWGQGTTVTVSS VL: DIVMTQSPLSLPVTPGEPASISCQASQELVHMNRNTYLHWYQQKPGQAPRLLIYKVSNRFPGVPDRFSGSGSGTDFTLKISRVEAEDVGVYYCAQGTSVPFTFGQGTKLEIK is 0
